biological target: Leishmania amazonensis recombinant arginase (L-ARG) (Leishmania amazonensis); assay: Arginase inhibition test, recombinant L-ARG (urea, Berthelot method); type: biochemical; settings: at 100 μM; read-out: Emax (maximal inhibitory activity)
Metric: Emax at 100 µM (%)

INSERT INTO measurements (molecule, measured_on, metric, test_result) VALUES
  ('COC(=O)C(Cc1ccc(O)c(O)c1)NC(=O)/C=C/c1ccc(O)c(O)c1 (stereo not drawn)', 'Leishmania amazonensis recombinant arginase (L-ARG) (Leishmania amazonensis)', 'Emax at 100 µM', 89),
  ('O=C(/C=C/c1ccc(O)cc1)NCCc1ccc(O)c(O)c1', 'Leishmania amazonensis recombinant arginase (L-ARG) (Leishmania amazonensis)', 'Emax at 100 µM', 82),
  ('O=C(/C=C/c1ccc(O)c(O)c1)NCCc1ccc(O)c(O)c1', 'Leishmania amazonensis recombinant arginase (L-ARG) (Leishmania amazonensis)', 'Emax at 100 µM', 81),
  ('O=C(/C=C/c1ccc(O)c(O)c1)NCCc1ccccc1 [CAPA, caffeic acid phenethyl amide]', 'Leishmania amazonensis recombinant arginase (L-ARG) (Leishmania amazonensis)', 'Emax at 100 µM', 79),
  ('COc1cc(/C=C/C(=O)NCCc2ccc(O)c(O)c2)cc(OC)c1OC', 'Leishmania amazonensis recombinant arginase (L-ARG) (Leishmania amazonensis)', 'Emax at 100 µM', 81),
  ('O=C(NCCc1ccc(O)cc1)c1ccc(O)c(O)c1', 'Leishmania amazonensis recombinant arginase (L-ARG) (Leishmania amazonensis)', 'Emax at 100 µM', 68),
  ('COC(=O)C(CS)NC(=O)/C=C/c1ccc(O)c(O)c1 (stereo not drawn)', 'Leishmania amazonensis recombinant arginase (L-ARG) (Leishmania amazonensis)', 'Emax at 100 µM', 90),
  ('O=C(/C=C/c1ccc(O)c(O)c1)NCCc1ccc(O)cc1', 'Leishmania amazonensis recombinant arginase (L-ARG) (Leishmania amazonensis)', 'Emax at 100 µM', 82),
  ('COc1cc(/C=C/C(=O)NCCc2ccc(O)c(O)c2)ccc1O', 'Leishmania amazonensis recombinant arginase (L-ARG) (Leishmania amazonensis)', 'Emax at 100 µM', 75);

* * *

Target: Leishmania amazonensis recombinant arginase (L-ARG) (Leishmania amazonensis, UniProt O96394)
Experiment: Determination of Ki, Kis and mechanism of inhibition of L-ARG (Dixon and Cornish-Bowden plots)
Assay type: biochemical
Settings: L-ARG
Description: All reactions were performed in 50 mM CHES buffer, pH 9.5, containing variable concentrations of the substrate L-arginine (25, 50, and 100 mM) at pH 9.5. Inhibitors were tested at three different concentrations close to the IC50. […] Urea was quantified according to the Berthelot method using commercial reagents as previously described. The constant Ki was determined for competitive and mixed inhibitors, and Ki’ was determined uncompetitive and mixed using a Dixon and Cornish–Bowden plots. […]
Metric: Mode of Inhibition

Below, each entry is followed by its recorded Mode of Inhibition result.
INSERT INTO measurements (compound, test_result) VALUES
  ('O=C(/C=C/c1ccc(O)c(O)c1)NCCc1ccc(O)cc1 [Compound 6]', 'Competitive'),
  ('O=C(/C=C/c1ccc(O)c(O)c1)NCCc1ccccc1 [CAPA, caffeic acid phenethyl amide]', 'Competitive'),
  ('O=C(/C=C/c1ccccc1)NCCc1ccc(O)c(O)c1 [Compound 15]', 'Mixed'),
  ('O=C(NCCc1ccc(O)cc1)c1ccc(O)c(O)c1 [Compound 17]', 'Competitive'),
  ('COc1cc(/C=C/C(=O)NCCc2ccc(O)c(O)c2)cc(OC)c1OC [Compound 14]', 'Competitive');

Lookup: Returns the measured Mode of Inhibition for the input compound. Input: O=C(/C=C/c1ccc(O)cc1)NCCc1ccc(O)c(O)c1 [Compound 13]
Found: Competitive

Lookup: Can you handle COC(=O)C(CS)NC(=O)/C=C/c1ccc(O)c(O)c1 (stereo not shown) [Compound 19] next?
Found: Mixed

Lookup: Field entry: COC(=O)C(Cc1ccc(O)c(O)c1)NC(=O)/C=C/c1ccc(O)c(O)c1 (stereo not shown) [Compound 18]
Found: Mixed

* * *

target: Leishmania amazonensis recombinant arginase (L-ARG) (Leishmania amazonensis, UniProt O96394); test: Arginase inhibition test, recombinant L-ARG (urea, Berthelot method); format: biochemical; settings: 50 mM L-arginine, pH 9.5, 37 °C, 15 min; read-out: IC50 (half inhibitory activity), L-ARG
Metric: IC50 (µM)

Before answering, review these 2 worked examples.
INSERT INTO results (compound, test_result) VALUES
  ('COC(=O)C(CS)NC(=O)/C=C/c1ccc(O)c(O)c1 (centres unmarked) [Compound 19]', 9),
  ('COc1cc(/C=C/C(=O)NCCc2ccc(O)c(O)c2)ccc1O [Compound 12]', 6.5);

P = COC(=O)C(Cc1ccc(O)c(O)c1)NC(=O)/C=C/c1ccc(O)c(O)c1 (centres unmarked) [Compound 18]
Q = O=C(/C=C/c1ccc(O)c(O)c1)NCCc1ccccc1 [CAPA, caffeic acid phenethyl amide]
R = COc1cc(/C=C/C(=O)NCCc2ccc(O)c(O)c2)cc(OC)c1OC [Compound 14]
Lookup: # ascending order, key=IC50 Return the labels ranked in the requested order, please.
Found: R, P, Q
(R: 2.4 µM, P: 4 µM, Q: 6.9 µM)

* * *

test system: Leishmania amazonensis recombinant arginase (L-ARG); assay: Arginase inhibition test, recombinant L-ARG (urea, Berthelot method); type: biochemical; conditions: L-ARG over B-ARG (bovine IC50 vs L. amazonensis IC50)
Metric: Selective Index

INSERT INTO assay_data (molecule, measured_on, metric, test_result) VALUES
  ('COC(=O)C(CS)NC(=O)/C=C/c1ccc(O)c(O)c1 (stereo not shown) [Compound 19]', 'Leishmania amazonensis recombinant arginase (L-ARG)', 'Selective Index', 4);

A = O=C(NCCc1ccc(O)cc1)c1ccc(O)c(O)c1 [Compound 17]
B = O=C(/C=C/c1ccc(O)c(O)c1)NCCc1ccc(O)cc1 [Compound 6]
C = O=C(/C=C/c1ccccc1)NCCc1ccc(O)c(O)c1 [Compound 15]
Lookup: # rank by Selective Index, ascending (min first) Reply: labels, ordered per the request.
Found: B, A, C

* * *

target: Leishmania amazonensis recombinant arginase (L-ARG) (Leishmania amazonensis, UniProt O96394); experiment: Determination of Ki, Kis and mechanism of inhibition of L-ARG (Dixon and Cornish-Bowden plots); conditions: L-arginine 25, 50, 100 mM, pH 9.5
Metric: Ki (µM)

INSERT INTO measurements (molecule, test_result) VALUES
  ('O=C(/C=C/c1ccccc1)NCCc1ccc(O)c(O)c1 [Compound 15]', 1.4);

P = O=C(/C=C/c1ccc(O)cc1)NCCc1ccc(O)c(O)c1 [Compound 13]
Q = O=C(/C=C/c1ccc(O)c(O)c1)NCCc1ccccc1 [CAPA, caffeic acid phenethyl amide]
Lookup: Which record shows the lower Ki: the first, P , or the second, Q ? Please respond with the label that marks your chosen entry.
Found: P

* * *

target: Leishmania amazonensis recombinant arginase (L-ARG) (Leishmania amazonensis); assay: Arginase inhibition test, recombinant L-ARG (urea, Berthelot method); assay type: biochemical; conditions: Table 2, unit inferred; read-out: IC50 inhibition of arginase, L. amazonensis
Metric: IC50 (µM)

INSERT INTO results (molecule, measured_on, test_result) VALUES
  ('O=C(/C=C/c1ccccc1)NCCc1ccc(O)c(O)c1 [Compound 15]', 'Leishmania amazonensis recombinant arginase (L-ARG) (Leishmania amazonensis)', 1.3),
  ('O=C(/C=C/c1ccc(O)cc1)NCCc1ccc(O)c(O)c1 [Compound 13]', 'Leishmania amazonensis recombinant arginase (L-ARG) (Leishmania amazonensis)', 2.5),
  ('COc1cc(/C=C/C(=O)NCCc2ccc(O)c(O)c2)cc(OC)c1OC [Compound 14]', 'Leishmania amazonensis recombinant arginase (L-ARG) (Leishmania amazonensis)', 2.4),
  ('COC(=O)C(CS)NC(=O)/C=C/c1ccc(O)c(O)c1 (stereo not shown) [Compound 19]', 'Leishmania amazonensis recombinant arginase (L-ARG) (Leishmania amazonensis)', 9),
  ('O=C(/C=C/c1ccc(O)c(O)c1)NCCc1ccc(O)cc1 [Compound 6]', 'Leishmania amazonensis recombinant arginase (L-ARG) (Leishmania amazonensis)', 5.6);

A = O=C(/C=C/c1ccc(O)c(O)c1)NCCc1ccccc1 [CAPA, caffeic acid phenethyl amide]
B = O=C(/C=C/c1ccc(O)c(O)c1)NCCc1ccc(O)c(O)c1 [Compound 11]
C = COC(=O)C(Cc1ccc(O)c(O)c1)NC(=O)/C=C/c1ccc(O)c(O)c1 (stereo not shown) [Compound 18]
D = O=C(NCCc1ccc(O)cc1)c1ccc(O)c(O)c1 [Compound 17]
Lookup: Hey, quick one: sort these by IC50, largest value first please. Labels, requested order.
Found: D, A, C, B

* * *

tested on: L. amazonensis promastigotes; assay: Promastigote growth inhibition (MTT); type: cell-based; conditions: Leishmania amazonensis, 78 h
Metric: pIC50
pIC50 (log units): -log10 of the concentration in mol/L.

Lookup: Look at this compound and give its reported pIC50. O=C(/C=C/c1ccc(O)c(O)c1)NCCc1ccccc1 [CAPA, caffeic acid phenethyl amide]
Found: 4.08
